molecular target: Glutamate NMDA receptor (Mus musculus) (UniProt P35436+Q91ZU9+Q03391+P35438+Q01097+Q01098+A2AIR5); test: Positive allosteric modulation of C57BL/6 mouse NMDA receptor assessed as fold change in compound potentiated NMDA-induced current relative to NMDA current alone in presence of saturating glutamate by patch-clamp method; type: tissue-based; conditions: Brain, filed as positive allosteric modulator
parameter: fold change (FC)
A bare number is all that is needed in reply.

Which value of fold change (FC) has been reported for Cc1cc(C)n(Cc2ccc(C(=O)Nc3ccc(Cl)c(Cl)c3)s2)n1 in the records?
14.3

Which value of fold change (FC) has been reported for Cc1cc(C)n(Cc2ccc(C(=O)Nc3ccc(F)cc3C)s2)n1 in the records?
10.2

Which value of fold change (FC) has been reported for Cc1cc(C)n(Cc2ccc(C(=O)Nc3ccc(-c4cccnc4)cc3)s2)n1 in the records?
12.8

Which value of fold change (FC) has been reported for Cc1cc(C)n(Cc2ccc(C(=O)Nc3ccc4cc[nH]c4c3)s2)n1 in the records?
10.5

Which value of fold change (FC) has been reported for Cc1cc(C)n(Cc2ccc(C(=O)Nc3ccc(Br)cc3C)o2)n1 in the records?
3.8

====

assay: AUC (0 to t) in Sprague-Dawley rat at 3 mg/kg, iv measured up to 1280 mins by HPLC-MS/MS analysis; assay type: ADME, organism-based; design: route intravenous, dose 3 mg/kg, time <=1280; conditions: in vivo
parameter: AUC(0-t) at 1280 min (ng·h/mL)
Enter your answer as a number in ng·h/mL; do not include the unit.

Which value of AUC(0-t) at 1280 min has been reported for Cc1cc(C)n(Cc2ccc(C(=O)Nc3ccc(Cl)c(Cl)c3)s2)n1 in the records?
1820

====

test: Brain to blood partition coefficient of the compound; assay type: physicochemical, tissue-based; details: read-out: logBB (converted)
Response field class: enum, chosen by comparing Kp against bucket 1: < 0.4; bucket 2: ≥ 0.4 and < 0.8; bucket 3: ≥ 0.8

The examples below pair each entry with its known result.
Cc1cc(C(F)(F)F)n(Cc2ccc(C(=O)Nc3ccc(Cl)cc3C)o2)n1; bucket 3
Cc1cc(C)n(Cc2ccc(C(=O)Nc3ccc(F)cc3C)o2)n1; bucket 2
Cc1cc(C)n(Cc2ccc(C(=O)Nc3ccc4cnccc4c3)s2)n1; bucket 1
O=C(Nc1ccc(Cl)cc1C(=O)NCCCCO)c1ccco1; bucket 1
CCCCNC(=O)c1cc(Cl)ccc1NC(=O)c1ccc(Cn2nc(C)cc2C)o1; bucket 1

Now consider a different compound.
Category lookup for the compound Cc1cc(C)n(Cc2ccc(C(=O)Nc3cc(F)cc(F)c3)s2)n1
bucket 3

====

target: Glutamate NMDA receptor; experiment: Positive allosteric modulation of C57BL/6 mouse NMDA receptor assessed as potentiation of NMDA-induced current in presence of saturating glutamate by patch-clamp method; type: tissue-based, Brain
parameter: pEC50
Reminder that pEC50 is minus the log10 of a molar concentration.

Use these answered entries as a reference point.
O=C(Nc1cc(Cl)cc(Cl)c1)c1ccc(Cn2nc(C(F)(F)F)cc2C(F)(F)F)o1; 4.90
Cc1cc(C)n(Cc2ccc(C(=O)Nc3ccc(Cl)c(Cl)c3)s2)n1; 5.62
Cc1cc(C)n(Cc2ccc(C(=O)Nc3ccc(-c4cccnc4)cc3)s2)n1; 5.44
Cc1cc(C)n(Cc2ccc(C(=O)Nc3ccc(Br)cc3C)o2)n1; 5.06
Cc1cc(C)n(Cc2ccc(C(=O)Nc3ccc4cc[nH]c4c3)s2)n1; 5.05

Which value of pEC50 has been reported for Cc1cc(C)n(Cc2ccc(C(=O)Nc3ccc(F)cc3C)s2)n1 in the records?
5.11

====

experiment: Ratio of drug concentration in brain to plasma in ICR mouse at 10 mg/kg, po measured at 0.5 hrs by LC-MS/MS analysis; format: ADME, organism-based; conditions: read-out: BPR
parameter: Kp at 0.5 h

Which value of Kp at 0.5 h has been reported for Cc1cc(C)n(Cc2ccc(C(=O)Nc3ccc(Cl)c(Cl)c3)s2)n1 in the records?
0.37

Which value of Kp at 0.5 h has been reported for O=C(Nc1cc(Cl)cc(Cl)c1)c1ccc(Cn2nc(C(F)(F)F)cc2C(F)(F)F)o1 in the records?
0.16

====

experiment: Ratio of drug concentration in brain to plasma in Sprague-Dawley rat at 3 mg/kg, iv measured at 80 mins by LC-MS/MS analysis; format: ADME, organism-based; conditions: read-out: BPR
parameter: Kp at 1.333 h

Which value of Kp at 1.333 h has been reported for Cc1cc(C)n(Cc2ccc(C(=O)Nc3ccc(Cl)c(Cl)c3)s2)n1 in the records?
1.5

====

experiment: Drug concentration in ICR mouse plasma at 3 mg/kg, iv measured at 2 hrs; format: ADME, organism-based
// reported concentration at 2 h for each item listed
Enter your answer as a number in ng/mL; do not include the unit.

O=C(Nc1cc(Cl)cc(Cl)c1)c1ccc(Cn2nc(C(F)(F)F)cc2C(F)(F)F)o1; 304

Which value of concentration at 2 h has been reported for Cc1cc(C)n(Cc2ccc(C(=O)Nc3ccc(Cl)c(Cl)c3)s2)n1 in the records?
2940

====

test system: Mus musculus; test: Antidepressant activity in ICR mouse aassessed as inhibition of apomorphine-induced climbing behaviour at 10 mg/kg, ip administered prior to APO challenge and measured after 30 mins; assay type: functional, organism-based
Activity calls are given as the source filed them. No cut-off for these calls is given here.
Mark one answer only. Choices: active, inactive

The examples below pair each entry with its known result.
Cc1cc(C)n(Cc2ccc(C(=O)Nc3ccc4cc[nH]c4c3)s2)n1; inactive
Cc1nc2n(c(=O)c1CCN1CCC(c3noc4cc(F)ccc34)CC1)CCCC2; active
Cc1cc(C)n(Cc2ccc(C(=O)Nc3ccc(F)cc3C)s2)n1; inactive
Cc1cc(C)n(Cc2ccc(C(=O)Nc3ccc(Cl)c(Cl)c3)s2)n1; inactive
O=C(Nc1cc(Cl)cc(Cl)c1)c1ccc(Cn2nc(C(F)(F)F)cc2C(F)(F)F)o1; inactive

Dear colleague, could you share the recorded outcome for Cc1cc(C)n(Cc2ccc(C(=O)Nc3ccc(-c4cccnc4)cc3)s2)n1 when you have a moment?
inactive

====

experiment: Drug concentration in Sprague-Dawley rat plasma at 3 mg/kg, iv measured at 80 mins by LC-MS/MS analysis; assay type: ADME, organism-based
parameter: concentration at 1.333 h (µg/mL)
Enter your answer as a number in µg/mL; do not include the unit.

Which value of concentration at 1.333 h has been reported for Cc1cc(C)n(Cc2ccc(C(=O)Nc3ccc(Cl)c(Cl)c3)s2)n1 in the records?
0.239

====

target: Glutamate NMDA receptor; assay: Positive allosteric modulation of ICR mouse primary cortical neuron NMDA receptor assessed as potentiation of NMDA-induced current in presence of 30 uM exogenous glycine by whole-cell patch clamp method (reference value: 23.9 +/- 1.3 uM); format: tissue-based, Brain
parameter: pEC50
Reminder that pEC50 is minus the log10 of a molar concentration.

Which value of pEC50 has been reported for Cc1cc(C)n(Cc2ccc(C(=O)Nc3ccc(Br)cc3C)o2)n1 in the records?
4.87

====

assay: Ratio of drug concentration in brain to plasma in ICR mouse at 10 mg/kg, po measured at 2 hrs by LC-MS/MS analysis; type: ADME, organism-based; conditions: read-out: BPR
parameter: Kp at 2 h
A bare number is all that is needed in reply.

Which value of Kp at 2 h has been reported for O=C(Nc1cc(Cl)cc(Cl)c1)c1ccc(Cn2nc(C(F)(F)F)cc2C(F)(F)F)o1 in the records?
0.15

Which value of Kp at 2 h has been reported for Cc1cc(C)n(Cc2ccc(C(=O)Nc3ccc(Cl)c(Cl)c3)s2)n1 in the records?
0.38

====

test: Effect on locomotor activity in ICR mouse assessed as hyperlocomotion at 10 mg/kg, ip measured after 90 mins; format: ADME, organism-based; settings: in vivo, 1.5 h
parameter: Activity

Use these answered entries as a reference point.
Cc1cc(C)n(Cc2ccc(C(=O)Nc3ccc(-c4cccnc4)cc3)s2)n1; Non-Toxic
O=C(Nc1cc(Cl)cc(Cl)c1)c1ccc(Cn2nc(C(F)(F)F)cc2C(F)(F)F)o1; Non-Toxic
Cc1cc(C)n(Cc2ccc(C(=O)Nc3ccc(Cl)c(Cl)c3)s2)n1; Non-Toxic
Cc1cc(C)n(Cc2ccc(C(=O)Nc3ccc4cc[nH]c4c3)s2)n1; Non-Toxic

The record that follows has no Activity shown yet.
Which value of Activity has been reported for Cc1cc(C)n(Cc2ccc(C(=O)Nc3ccc(F)cc3C)s2)n1 in the records?
Non-Toxic

====

assay: Half life in ICR mouse at 10 mg/kg, po measured up to 24 hrs by HPLC-MS/MS analysis; assay type: ADME, organism-based; details: in vivo
parameter: half-life (h)
Enter your answer as a number in h; do not include the unit.

O=C(Nc1cc(Cl)cc(Cl)c1)c1ccc(Cn2nc(C(F)(F)F)cc2C(F)(F)F)o1; 5.7

The record that follows has no half-life shown yet.
Which value of half-life has been reported for Cc1cc(C)n(Cc2ccc(C(=O)Nc3ccc(Cl)c(Cl)c3)s2)n1 in the records?
2.9
